Reference source: patent US20190359723A1

# tested_target: T1, IL-13RA2 huFc (human)
# T1 construct: Expressed in 293F cells, purified on protein A; also called human IL13RA2; recombinant IL-13RA2
# T1 sequence (chain, as listed by the source limits assumed): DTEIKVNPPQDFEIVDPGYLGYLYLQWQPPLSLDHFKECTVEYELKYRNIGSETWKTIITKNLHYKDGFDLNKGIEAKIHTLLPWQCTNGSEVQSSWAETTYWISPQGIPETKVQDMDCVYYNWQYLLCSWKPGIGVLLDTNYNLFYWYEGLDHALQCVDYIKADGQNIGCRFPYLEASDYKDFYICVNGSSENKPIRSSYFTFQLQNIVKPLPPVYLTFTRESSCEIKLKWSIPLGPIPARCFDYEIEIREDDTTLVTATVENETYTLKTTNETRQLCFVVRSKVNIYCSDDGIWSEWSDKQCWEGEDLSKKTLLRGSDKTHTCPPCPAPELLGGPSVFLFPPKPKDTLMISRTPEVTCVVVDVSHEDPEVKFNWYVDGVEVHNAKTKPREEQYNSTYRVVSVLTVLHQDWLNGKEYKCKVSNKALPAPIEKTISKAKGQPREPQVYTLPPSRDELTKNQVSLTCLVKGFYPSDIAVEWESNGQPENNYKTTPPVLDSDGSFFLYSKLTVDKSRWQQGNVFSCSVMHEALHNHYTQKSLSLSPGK
# assay_details: SPR (Biacore T200), scFv_Fc forms on IL-13RA2 huFc, summary table
Field: Kd. Provide a value for each of the binders that follow.
Number in nM, nothing else.

### Prompt Fill in the blank: the reported Kd of 2D4 (scFv_Fc form) (Fc fusion, not shown: human Fc segment of the eukaryotic expression vector V152) scFv: EVQLLESGGGLVQPGGSLRLSCAASGFTFRKYAMGWVRQAPGKGLEWVSGISGSVGSTYYADSVKGRFTISRDNSKNTLYLQMNSLRAEDTAVYYCAKVRYGWGAGAFDYWGQGTLVTVSSGGGGSGGGGSGGGGSDIQMTQSPSTLSASVGDRVTITCRASQSISSWLAWYQQKPGKAPKLLIYDASSLESGVPSRFSGSGSGTEFTLTISSLQPDDFATYYCQQYDTYPPITFGQGTKVEIK is ____.
### Response 0.174

### Prompt Fill in the blank: the reported Kd of 5D7 (scFv_Fc form) (Fc fusion, not shown: human Fc segment of the eukaryotic expression vector V152) scFv: EVQLLESGGGLVQPGGSLRLSCAASGFTFSNYAMSWVRQAPGKGLEWVSGIRSSGGRTFYADSVKGRFTISRDNSKNTLYLQMNSLRAEDTAVYYCARVAFSGSFDYWGQGTLVTVSSGGGGSGGGGSGGGGSDIQMTQSPSTLSASVGDRVTITCRASQSISSWLAWYQQKPGKAPKLLIYDASSLESGVPSRFSGSGSGTEFTLTISSLQPDDFATYYCQQRNRYPPTFGQGTKVEIK is ____.
### Response 0.335

### Prompt Fill in the blank: the reported Kd of 1B11 (scFv_Fc form) (Fc fusion, not shown: human Fc segment of the eukaryotic expression vector V152) scFv: EVQLLESGGGLVQPGGSLRLSCAASGFTFSRDALNWVRQAPGKGLEWVSAISGSGGSTFYADSVKGRFTISRDNSKNTLYLQMNSLRAEDTAVYYCAKVRYGWGAGAFDYWGQGTLVTVSSGGGGSGGGGSGGGGSDIQMTQSPSTLSASVGDRVTITCRASQSISSWLAWYQQKPGKAPKLLIYDASSLESGVPSRFSGSGSGTEFTLTISSLQPDDFATYYCQQYDTYPPITFGQGTKVEIK is ____.
### Response 1.04

### Prompt Fill in the blank: the reported Kd of 2C7 (scFv_Fc form) (Fc fusion, not shown: human Fc segment of the eukaryotic expression vector V152) scFv: EVQLLESGGGLVQPGGSLRLSCAASGFTFKLPAMSWVRQAPGKGLEWVSAITGSGGSTYYADSVKGRFTISRDNSKNTLYLQMNSLRAEDTAVYYCAKVRYGWGAGAFDYWGQGTLVTVSSGGGGSGGGGSGGGGSDIQMTQSPSTLSASVGDRVTITCRASQSISSWLAWYQQKPGKAPKLLIYDASSLESGVPSRFSGSGSGTEFTLTISSLQPDDFATYYCQQYDTYPPITFGQGTKVEIK is ____.
### Response 0.248

### Prompt Fill in the blank: the reported Kd of 5G3 (scFv_Fc form) (Fc fusion, not shown: human Fc segment of the eukaryotic expression vector V152) scFv: EVQLLESGGGLVQPGGSLRLSCAASGFTFSSYVLSWVRQAPGKGLEWVSAIRGSAGNTYYADSVKGRFTISRDNSKNTLYLQMNSLRAEDTAVYYCARVAFSGSFDYWGQGTLVTVSSGGGGSGGGGSGGGGSDIQMTQSPSTLSASVGDRVTITCRASQSISSWLAWYQQKPGKAPKLLIYDASSLESGVPSRFSGSGSGTEFTLTISSLQPDDFATYYCQQRNRYPPTFGQGTKVEIK is ____.
### Response 0.194
